Taken from paper PMC6268972.

- Test system: Escherichia coli
- TEST: Microtiter plate dilution MIC, E. coli
- Assay type: cell-based
- PROTOCOL_CONDITIONS: Escherichia coli, ATCC10798; ATCC 10798, 24 h, 100% inhibition; read-out: Minimum inhibitory concentration (MIC) E.c
MIC for assorted compounds

Some solved cases for reference:
INSERT INTO measurements (compound, reported_measurement) VALUES
  ('C=C1C(=O)O[C@H]2CC(=C)[C@H]3CC[C@@](C)(O)[C@@H]3C[C@H]12 [Inuviscolide]', '> 250 µg/mL'),
  ('COc1c(-c2ccc(O)c(O)c2)oc2cc(O)cc(O)c2c1=O', '> 250 µg/mL'),
  ('C=C(C(=O)O)[C@@H]1CC[C@@]2(C)CCC[C@@](C)(O)[C@@H]2C1', '> 250 µg/mL');

Ask: Provide MIC, tested on Escherichia coli, for COc1cc(-c2oc3cc(O)cc(O)c3c(=O)c2OC)ccc1O .
Reply: > 250 µg/mL

Ask: Provide MIC, tested on Escherichia coli, for CN(C)[C@@H]1C(O)=C(C(N)=O)C(=O)[C@@]2(O)C(O)=C3C(=O)c4c(O)cccc4[C@@](C)(O)[C@H]3C[C@@H]12 [Tetracycline, reference compound] .
Reply: 150 µg/mL

Ask: Provide MIC, tested on Escherichia coli, for CC1(C)S[C@@H]2[C@H](NC(=O)Cc3ccccc3)C(=O)N2[C@H]1C(=O)O [Penicillin G, reference compound] .
Reply: 125 µg/mL

---

IC50 for assorted compounds
- System: Vero cells
- TEST: MTT antiproliferative activity assay, Vero
- Type: cell-based, African green monkey
- PROTOCOL_CONDITIONS: Chlorocebus sabaeus, Vero; MTT, 48 h treatment, average of three replicates; read-out: IC50 Vero
- Description: Hep-2 (larynx carcinoma, ATCC: CCL-23), MCF-7 (breast epithelial adenocarcinoma, ATCC: HTB-22), and Vero (African green monkey kidney, ATCC: CCL-81) cell lines were kindly provided by Dr. Mona Hassuneh (Department of Biological Sciences, University of Jordan). […] The antiproliferative activity of Inula viscosa compounds was measured using the MTT (3-(4,5-dimethylthiazol-2-yl)-2,5-diphenyltetrazolium bromide) assay (Promega, Madison, WI, USA). […]
Where a name gives a salt, the structure may show the parent alone.

Some solved cases for reference:
INSERT INTO results (compound, subject_of_test, property_label, reported_measurement) VALUES
  ('CC[C@]1(O)C[C@H]2CN(CCc3c([nH]c4ccccc34)[C@@](C(=O)OC)(c3cc4c(cc3OC)N(C=O)[C@H]3[C@@](O)(C(=O)OC)[C@H](OC(C)=O)[C@]5(CC)C=CCN6CC[C@]43[C@@H]65)C2)C1 [Vincristine sulfate, reference compound]', 'Vero cells', 'IC50', '> 90 µg/mL'),
  ('COc1cc(-c2oc3cc(O)cc(O)c3c(=O)c2OC)ccc1O', 'Vero cells', 'IC50', '> 150 µg/mL'),
  ('C=C(C(=O)O)[C@@H]1CC[C@@]2(C)CCC[C@@](C)(O)[C@@H]2C1', 'Vero cells', 'IC50', '> 150 µg/mL'),
  ('C=C1C(=O)O[C@H]2CC(=C)[C@H]3CC[C@@](C)(O)[C@@H]3C[C@H]12 [Inuviscolide]', 'Vero cells', 'IC50', '> 150 µg/mL');

# evaluate next
Ask: Provide IC50, tested on Vero cells, for COc1c(-c2ccc(O)c(O)c2)oc2cc(O)cc(O)c2c1=O .
Reply: > 150 µg/mL
